- SYSTEM_UNDER_TEST: CDK4/Cyclin D3 (Homo sapiens) (UniProt P11802+P30281)
- EXPERIMENT: Inhibition of human CDK4/CyclinD3 at 1 uM by enzymatic radiometric assay
- Assay type: protein-complex assay
Recorded inhibition, one value per entry.
METRIC: inhibition (%)

# INPUT_SMILES, METRIC, MEASURED_VALUE
rows = [
    ("COc1ccc(NC(=O)C2(C(=O)Nc3ccc(Nc4ncc5cc(C(=O)N(C)C)n(C6CCCC6)c5n4)cc3)CC2)cc1", "inhibition", 77),
    ("CN(C)C(=O)c1cc2cnc(Nc3ccc(NC(=O)C4(C(=O)Nc5cccc(F)c5)CC4)cc3)nc2n1C1CCCC1", "inhibition", 61),
    ("CN(C)C(=O)c1cc2cnc(Nc3ccc(NC(=O)C4(C(=O)Nc5ccc(F)cc5)CC4)cn3)nc2n1C1CCCC1", "inhibition", 85),
    ("CN(C)C(=O)c1cc2cnc(Nc3ccc(NC(=O)C4(C(=O)Nc5cccc(Cl)c5)CC4)cc3)nc2n1C1CCCC1", "inhibition", 44),
    ("CN(C)C(=O)c1cc2cnc(Nc3ccc(NC(=O)C4(C(=O)Nc5cccc(C#N)c5)CC4)cc3)nc2n1C1CCCC1", "inhibition", 53),
]
